System: angiotensin II receptor
Experiment: Adrenal Glomerulosa Test System: I125-angiotensin II binding to adrenal membranes
Details: percent inhibition of I125 angiotensin binding at 10^-5 M of antagonist; rat adrenal membranes; 0.1 nM I125-angiotensin II
Measured Adrenal Glomerulosa (% Inhibition of Binding), listed per entry for reference.

MOLECULE | TARGET OR SYSTEM | MEASUREMENT
CCCCCCC(C(=O)O)n1nnc(NC(=O)c2ccccc2C(=O)O)n1 (stereo not drawn) | angiotensin II receptor | 39%
CCCCCCC(c1cccc(C(=O)NC(c2ccccc2)c2ccccc2)c1)c1nnn[nH]1 (stereo not drawn) | angiotensin II receptor | 9%
CCCCCCC(C(=O)O)n1cnc(NC(=O)c2cccc([N+](=O)[O-])c2C(=O)O)c1.O (stereo not drawn) | angiotensin II receptor | 0%

# molecule CCCCCCC(C(=O)O)n1cnc(C(=O)NC(c2ccccc2)c2ccccc2)c1.Cl (stereo not drawn) ; its Adrenal Glomerulosa (% Inhibition of Binding) = 69%

# molecule CCCCCCC(C(=O)O)n1cnc(NC(=O)C(CC)(c2ccccc2)c2ccccc2)c1 (stereo not drawn) ; its Adrenal Glomerulosa (% Inhibition of Binding) = 57%

# molecule CCCCCCC(C(=O)O)n1cnc(NC(=O)c2c(F)cccc2C(=O)O)c1 (stereo not drawn) ; its Adrenal Glomerulosa (% Inhibition of Binding) = 0%

# molecule CCCCCCC(C(=O)O)c1ccc(NC(=O)c2ccccc2C(=O)O)cc1 (stereo not drawn) ; its Adrenal Glomerulosa (% Inhibition of Binding) = 30%

# molecule CCCCCCC(C(=O)O)n1ccc(C(=O)NC(c2ccccc2)c2ccccc2)c1 (stereo not drawn) ; its Adrenal Glomerulosa (% Inhibition of Binding) = 42%

# molecule CCCCCCC(C(=O)O)n1cnc(NC(=O)c2ccccc2CC(=O)O)c1.O (stereo not drawn) ; its Adrenal Glomerulosa (% Inhibition of Binding) = 0%

====

Measured Kb, listed per entry for reference.
Molecular target: angiotensin-induced vasoconstriction (rabbit aorta) (Oryctolagus cuniculus)
Construct: the thoracic aortas were removed and cleaned of excess fat and connective tissue; from tissue; host or cells: thoracic aorta rings of New Zealand white rabbits
Sequence (P34976 whole entry): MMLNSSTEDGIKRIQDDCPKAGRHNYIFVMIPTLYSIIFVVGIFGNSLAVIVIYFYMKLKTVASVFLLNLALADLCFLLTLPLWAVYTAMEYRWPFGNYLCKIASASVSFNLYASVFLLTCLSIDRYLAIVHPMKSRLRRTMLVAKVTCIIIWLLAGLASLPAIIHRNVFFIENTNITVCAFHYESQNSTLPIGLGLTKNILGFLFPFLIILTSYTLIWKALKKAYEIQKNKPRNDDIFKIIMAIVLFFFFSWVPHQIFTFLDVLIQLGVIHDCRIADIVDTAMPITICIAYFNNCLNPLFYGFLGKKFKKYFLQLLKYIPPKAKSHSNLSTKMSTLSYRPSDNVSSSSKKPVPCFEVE
Assay: Rabbit Aorta Test System: antagonism of angiotensin II-induced contraction of aortic rings
Type: cell-based, New Zealand white rabbits
Settings: pA2 = -log KB; KB = [molar concentration of antagonist]/[(EC50 AII with antagonist/EC50 AII without antagonist)-1]; 30 min incubation; AII 10^-10 to 10^-7 M; read-out: Rabbit Aorta (pA2) (converted)
Give just the number in µM; leave the unit off.

Worked examples follow.
MOLECULE | Kb [µM]
CCCCCCC(C(=O)O)n1cnc(NC(=O)c2ccc(O)c(O)c2)c1 (centres unmarked) [Example 79, hydrate] | 11
CCCCCCC(C(=O)O)n1cnc(C(=O)Nc2ccc(CCO)cc2)c1.Cl (centres unmarked) [Example 87, hydrochloride] | 23.4
CCCCCCC(C(=O)O)n1cnc(NC(=O)c2cccc(NC(C)=O)c2C(=O)O)c1 (centres unmarked) [Example 97, hemihydrate] | 0.24
CCCCCCC(C(=O)O)n1cnc(NC(=O)c2cccc(N)c2C(=O)O)c1 (centres unmarked) | 0.372
CCCCCCC(C(=O)O)c1ccc(NC(=O)c2ccccc2C(=O)O)cc1 (centres unmarked) | 1.66

# molecule CCCCCCC(C(=O)O)n1cnc(NC(=O)c2c(C(=O)O)ccc3ccccc23)c1 (centres unmarked) ; its Kb = 2.63

# molecule CCCCCCC(C(=O)O)n1cnc(NC(=O)Cc2ccccc2C(=O)O)c1.O (centres unmarked) [Example 34, hydrate] ; its Kb = 1.91

# molecule CCCCCCC(C(=O)O)n1cnc(C(=O)NC(c2ccccc2)c2ccccc2)c1.Cl (centres unmarked) [Example 58, hydrochloride] ; its Kb = 4.27

Data origin: patent US5073566A
